system: IGROV1 ovarian; experiment: NCI tumour cell line growth inhibition, 48 h
Kindly supply the reported TGI values for the records listed here.

Below: 2 compounds and their reported TGI.
1. NCCCNCCS	> 100 µM
2. COc1ccc(NC(=O)CC/C(CC(=O)c2ccco2)=N/NC(=O)C(N)=O)cc1	> 100 µM

The measured TGI associated with COc1ccc(CC2COc3cc(OC)cc(OC)c3C2=O)cc1 (stereo not drawn) reads > 100 µM

* * *

test system: RXF 393 renal; assay: NCI tumour cell line growth inhibition, 48 h
MEASURED_ENDPOINT: TGI

1) O=C(Nc1ccc(Cl)cc1)C1C(=O)C(=O)N(c2ccc(Cl)cc2)C1=O (stereo not drawn)	> 100 µM

# batch: return TGI for each of the 4 molecules below
1. O=C1N/C(=C\[N+](=O)[O-])c2ccccc21
2. CC1(C)N/C(=C\[N+](=O)[O-])C(C)(C)N1O
3. Cc1ccc(S(=O)(=O)OC2CC=CC2)cc1
4. O=C1C=C(Nc2ccccc2C(=O)CC(=O)C(=O)Nc2cccc([N+](=O)[O-])c2)c2ccccc2C1=O

Response line:
["> 100 µM", "> 10 µM", "> 100 µM", "> 100 µM"]

# batch: return TGI for each of the 7 molecules below
1. CS(=O)(=O)C(C#N)c1nc2ccccc2nc1Cl (stereo not drawn)
2. CS(=O)(=O)Nc1ccc2ccccc2c1-c1c(NS(C)(=O)=O)ccc2ccccc12
3. COCCOC(=O)C1=C(O)c2ccccc2S(=O)(=O)N1C
4. CCOC(=O)C(NC(=O)Nc1ccc(C)cc1)(OCC)C(F)(F)F (stereo not drawn)
5. Cc1ccc(S(=O)(=O)Nc2cccc3c(=O)[nH]cnc23)cc1
6. Cc1ccc(S(=O)(=O)N/N=C2\CCCCC23CCC(=O)NC3)cc1 (stereo not drawn)
7. Cc1cc(C)nc(NS(=O)(=O)c2ccc(Nc3c4ccccc4nc4ccc(C(=O)Nc5ccc(S(N)(=O)=O)cc5)cc34)cc2)n1

Response line:
["> 100 µM", "> 25 µM", "> 100 µM", "> 100 µM", "> 100 µM", "> 100 µM", "> 100 µM"]

Record for `C[C@]12CC=CC(=O)[C@@]1(C)CCC(=O)C2` under target or system RXF 393 renal: TGI reported as > 100 µM

* * *

Kindly supply the reported TGI values for the records listed here.
test system: T-47D breast; assay: NCI tumour cell line growth inhibition, 48 h

Below: 3 compounds and their reported TGI.
1. COC1(OC)N=C(N)C2(C#N)C(c3ccccc3)NC3=C(CCC3)C12C#N (stereo not given)	> 100 µM
2. COC1OC(CS(=O)(=O)O)C(O)C(O)C1O (stereo not given)	> 100 µM
3. Cc1c(N2C(=O)C(Cl)C2/C=C/c2ccccc2)c(=O)n(-c2ccccc2)n1C (stereo not given)	> 100 µM

# batch: return TGI for each of the 2 compounds below
1. Nc1cc([N+](=O)[O-])ccc1C(=O)N1CCC[C@H]1CO
2. COc1ccc2c(c1)/C(=C\c1c(Cl)[nH]c3cc(C)c(OC)cc13)C(=O)N2

Response line:
1. > 100 µM
2. 40.5 µM

* * *

system: HOP-62 NSCLC; assay: NCI tumour cell line growth inhibition, 48 h
MEASURED_ENDPOINT: TGI

Below: 3 compounds and their reported TGI.
1) CN(/N=C/c1ccc(C(=O)O)cc1)C1=NCCCCN1	> 100 µM
2) Cc1nnc(-c2ccc(C)c(-c3ccc(C(=O)Nc4cccc(C#N)c4)cc3)c2)o1	> 25 µM
3) COc1ccc(C(C#N)NC23CC4CC(CC(C4)C2)C3)cc1 (stereo unspecified)	> 100 µM

# batch: return TGI for each of the 2 compounds below
1. CCOC(=O)C(NC(=O)Nc1ccc(C)cc1)(OCC)C(F)(F)F (stereo unspecified)
2. CCCCCCCCCCCC(=O)OCCOCCOCCOCCOCCOC(=O)CCCCCCCCCCC

Response line:
> 100 µM
> 100 µM

The measured TGI associated with `COc1ccc(Cn2c3c(cc(OC(C)=O)c2=O)Cc2ccccc2-3)cc1` reads > 50 µM
